Listed here: items and their measured EC50.
Target: T1, human CD40 on cells (human, UniProt P25942 21-277)
T1 construct: whole, on cells; Cell surface CD40 on transfected HEK293 cells, Ramos cells, peripheral blood B cells, dendritic cells and platelets; also called cellular CD40; CD40 on human CD40-transfected HEK293 cells, Ramos cells, human B cells and human platelets
T1 sequence (P25942 21-277): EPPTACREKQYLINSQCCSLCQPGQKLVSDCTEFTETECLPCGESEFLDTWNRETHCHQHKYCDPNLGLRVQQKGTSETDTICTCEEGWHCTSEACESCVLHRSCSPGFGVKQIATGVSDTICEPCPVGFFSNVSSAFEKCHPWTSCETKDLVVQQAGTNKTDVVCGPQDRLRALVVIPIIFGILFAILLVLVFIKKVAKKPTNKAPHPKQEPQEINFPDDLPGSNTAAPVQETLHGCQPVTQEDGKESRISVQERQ
Assay: cell binding, flow cytometry (cell line not given)

Binder: 4D11 (Kirin/Astellas) anti-CD40 antibody (antibody, V domains shown) VH: QLQLQESGPGLLKPSETLSLTCTVSGGSISSPGYYGGWIRQPPGKGLEWIGSIYKSGSTYHNPSLKSRVTISVDTSKNQFSLKLSSVTAADTAVYYCTRPVVRYFGWFDPWGQGTLVTVSS VL: AIQLTQSPSSLSASVGDRVTITCRASQGISSALAWYQQKPGKAPKLLIYDASNLESGVPSRFSGSGSGTDFTLTISSLQPEDFATYYCQQFNSYPTFGQGTKVEIK
Quantity Unit: nM
EC50: 0.9
--
Binder: Antibody B (antibody, human IgG1, kappa, L234A L235A, V domains shown, also called humanized 20E2) VH: EVQLVESGGGLVKPGGSLRLSCAASGFTFSDYGMHWVRQAPGKGLEWVAYISSGNRIIYYADTVKGRFTISRDNAKNSLYLQMNSLRAEDTAVYYCARQDGYRYAMDYWGQGTLVTVSS VL: DIVMTQSPDSLAVSLGEKVTINCKSSQSLLNSGNQKNYLTWHQQKPGQPPKLLIYWTSTRESGVPDRFSGSGSGTDFTLTISSLQAEDVAVYYCQNDYTYPLTFGGGTKVEIKR
Quantity Unit: nM
EC50: 1.5
--
Binder: Antibody A (antibody, human IgG1, kappa, L234A L235A, V domains shown, also called humanized 20E2) VH: EVQLVESGGGLVKPGGSLRLSCAASGFTFSDYGMHWVRQAPGKGLEWVAYISSGNRIIYYADTVKGRFTISRDNAKNSLYLQMNSLRAEDTALYYCARQDGYRYAMDYWAQGTLVTVSS VL: DIVMTQSPDSLAVSLGERATMSCKSSQSLLNSGNQKNYLTWHQQKPGQPPKLLIYWTSTRESGVPDRFSGSGSGTDFTLTISSLQAEDVAVYYCQNDYTYPLTFGGGTKVEIKR
Quantity Unit: nM
EC50: 1.2
--
Binder: Antibody C (antibody, human IgG1, kappa, L234A L235A, V domains shown, also called humanized 2H11) VH: QVQLVQSGAEVKKPGASVKVSCTASGFNIKDYYVHWVKQAPGQGLEWMGRIDPEDGDSKYAPKFQGKATMTADTSTSTVYMELSSLRSEDTAVYYCTTSYYVGTYGYWGQGTLVTVSS VL: DIQMTQSPSSLSASVGDRVTITCSASSSVSYMLWFQQKPGKAPKLLIYSTSNLASGVPSRFSGSGSGTDFTLTISSLQPEDFATYYCQQRTFYPYTFGGGTKVEIKR
Quantity Unit: nM
EC50: 1.7

Hey, just so you know, these numbers are from patent US20240309105A1.
